FYI, the data here is from the M2OR odorant receptor database.

System: O5AN1
Sequence (as listed by the source): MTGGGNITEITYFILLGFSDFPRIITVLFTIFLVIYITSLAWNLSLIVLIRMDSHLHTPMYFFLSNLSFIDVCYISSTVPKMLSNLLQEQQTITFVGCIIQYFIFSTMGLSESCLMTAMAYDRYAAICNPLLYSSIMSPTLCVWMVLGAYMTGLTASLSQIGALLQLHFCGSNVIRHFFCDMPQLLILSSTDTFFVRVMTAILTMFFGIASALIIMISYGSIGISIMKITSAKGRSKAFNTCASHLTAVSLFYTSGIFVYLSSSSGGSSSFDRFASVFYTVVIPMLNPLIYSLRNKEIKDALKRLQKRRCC
Conditions: stereoisomer not certain
Can you answer with just one of these options? true (1) for active, false (0) for inactive

- OC1CCCCCCCCCCCCCC1: true (1)
- O=C1CCCCCCCCC1: false (0)
- CC1CC=CCCCCCCCCC(=O)C1 (stereo unspecified): true (1)
- O=C1CCCC=CCCCCCCCCCC1: true (1)
- CCCCCCCC(=O)CCCCCCC: false (0)
- C1CCCCCCCCCCCCCC1: false (0)
- O=C1CCCCCCCCCC1: false (0)
- O=C1CCCCCC=CCCCCCCCCO1: false (0)

Inquiry: Any idea what this test logged for CC1CCCCCCCCCCCC(=O)C1 (stereo unspecified) ?
Reply text: true (1)

Inquiry: One more compound: CCC(=O)OCC(C)(C)OC(C)C1CCCC(C)(C)C1 (stereo unspecified)
Reply text: false (0)

Inquiry: One more compound: `O=C1C=CCCCCCCCCCCCCO1`
Reply text: false (0)
